- system: SOS1 protein (Homo sapiens, UniProt Q07889)
- Sequence (Q07889 whole entry): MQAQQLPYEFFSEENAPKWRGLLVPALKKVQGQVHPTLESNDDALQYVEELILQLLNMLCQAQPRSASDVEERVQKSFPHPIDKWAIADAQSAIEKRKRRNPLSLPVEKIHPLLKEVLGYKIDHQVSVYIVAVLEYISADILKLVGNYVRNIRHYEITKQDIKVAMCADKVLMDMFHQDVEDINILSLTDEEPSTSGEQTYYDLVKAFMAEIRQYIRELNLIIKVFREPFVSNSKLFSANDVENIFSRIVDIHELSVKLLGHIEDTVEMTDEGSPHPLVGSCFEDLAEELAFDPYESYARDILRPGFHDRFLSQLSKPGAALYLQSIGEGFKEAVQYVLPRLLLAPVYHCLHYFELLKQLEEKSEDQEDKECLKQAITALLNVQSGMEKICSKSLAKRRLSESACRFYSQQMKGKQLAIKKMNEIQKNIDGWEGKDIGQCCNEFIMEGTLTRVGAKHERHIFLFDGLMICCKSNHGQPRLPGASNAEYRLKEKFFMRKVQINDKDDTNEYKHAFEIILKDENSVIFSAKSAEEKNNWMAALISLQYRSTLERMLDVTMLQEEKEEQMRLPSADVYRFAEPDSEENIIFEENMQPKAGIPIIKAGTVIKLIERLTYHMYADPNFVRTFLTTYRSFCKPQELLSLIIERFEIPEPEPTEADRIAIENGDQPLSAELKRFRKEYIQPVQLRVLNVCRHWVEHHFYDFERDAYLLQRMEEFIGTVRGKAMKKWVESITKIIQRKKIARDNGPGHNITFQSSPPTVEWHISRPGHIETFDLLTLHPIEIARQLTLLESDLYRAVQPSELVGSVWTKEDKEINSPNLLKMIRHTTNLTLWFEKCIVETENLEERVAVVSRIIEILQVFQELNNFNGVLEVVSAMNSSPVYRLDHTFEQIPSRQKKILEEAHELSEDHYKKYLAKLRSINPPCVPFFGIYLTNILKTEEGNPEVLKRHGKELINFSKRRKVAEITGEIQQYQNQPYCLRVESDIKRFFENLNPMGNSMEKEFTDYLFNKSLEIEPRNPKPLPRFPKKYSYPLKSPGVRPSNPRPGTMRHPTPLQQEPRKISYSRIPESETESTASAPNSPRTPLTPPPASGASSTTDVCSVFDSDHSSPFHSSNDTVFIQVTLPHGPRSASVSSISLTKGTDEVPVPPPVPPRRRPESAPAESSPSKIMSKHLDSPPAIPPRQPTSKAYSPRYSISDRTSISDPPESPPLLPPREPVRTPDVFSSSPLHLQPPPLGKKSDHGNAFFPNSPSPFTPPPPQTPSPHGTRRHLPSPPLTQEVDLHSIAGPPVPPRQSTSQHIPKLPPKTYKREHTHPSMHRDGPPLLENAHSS
- method.description: SOS1 degradation assay (Western blot), NCI-H358 cells
- Format: cell-based
- Set-up: The degradation of SOS1 by the compounds was investigated on KRAS G12C mutant human non-small cell lung cancer cells NCI-H358; host or cells: NCI-H358 (human cancer cell lines)
- stated.conditions: SOS1 degradation, NCI-H358 cells, 24 h, Western blot; read-out: NCI-H358 (G12C) Dmax
measurement.kind: Dmax

Sample answers from the record:
COc1cc2nc(C)nc(N[C@H](C)c3cc(-c4c(Cl)cccc4CN(C)C)cs3)c2cc1[C@H]1CC[C@H](C(=O)N2CCC(COCCC3CCN(C(=O)c4ccc(Cl)c(N5CCC(=O)NC5=O)c4)CC3)CC2)CC1 :: 80 to 100%
Cc1nc(N[C@H](C)c2cc(N)cc(C(F)(F)F)c2)c2cc([C@H]3CC[C@H](C(=O)N4CCN(CC5CCC6(CC5)CCN(C(=O)c5ccc(Cl)c(N7CCC(=O)NC7=O)c5)CC6)CC4)CC3)ncc2n1 :: 50 to 80%
COc1ccc(C(=O)N2CCC3(CCC(CN4CCN(C(=O)[C@H]5CC[C@H](c6cc7c(N[C@H](C)c8cc(-c9c(Cl)cccc9CN(C)C)cs8)nc(C)nc7cc6OC)CC5)CC4)CC3)CC2)cc1N1CCC(=O)NC1=O :: 80 to 100%

Could you tell me which Dmax is on file for COc1cc2nc(C)nc(N[C@H](C)c3cc(N)cc(C(F)(F)F)c3)c2cc1OC1CCN(CC2CCC3(CC2)CCN(C(=O)c2ccc(Cl)c(N4CCC(=O)NC4=O)c2)CC3)CC1 ? 30 to 50%

Now the same for COCCOc1cc2nc(C)nc(N[C@H](C)c3cc(N)cc(C(F)(F)F)c3)c2cc1[C@H]1CC[C@H](C(=O)N2CCN(CC3CCC4(CC3)CCN(C(=O)c3ccc(Cl)c(N5CCC(=O)NC5=O)c3)CC4)CC2)CC1 50 to 80%

Try the compound Cc1nc(N[C@H](C)c2cc(N)cc(C(F)(F)F)c2)c2cc([C@H]3CC[C@H](C(=O)N4CCN(CC5CCC6(CC5)CCN(C(=O)c5ccc(Cl)c(N7CCC(=O)NC7=O)c5)CC6)CC4)CC3)c(C)cc2n1 50 to 80%

Values compiled from patent US20240261417A1.
